Assay: NCI Yeast Anticancer Drug Screen. Data for the rad50 strain (AID 155);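 note: 0% = growth of vehicle-only cultures of the same strain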
Details: S. cerevisiae rad50 strain growth inhibition; at 5.0 µM (retest, dose inferred, filed as 0.5); active compounds read high
The panel holds about 79,000 compounds, 15% with a hit somewhere; the sample as a whole holds those more often.
Lab note: anything with growth inhibition at or over 20% counts as label 1; the rest go in label 0.

Here's what some known entries look like.
O=[N+]([O-])c1cccc2nc3ccccc3c(NCCNCCO)c12 :: label 1
CCCCCCCCCCCCCCCCCCOC(=O)C(N)CCCCN (stereo unspecified) :: label 0
COc1ccc(/C(Cl)=C(\C=O)c2ccc(Cl)c(Cl)c2)cc1 :: label 0
NC(=O)SCC(=O)Nc1ccccc1 :: label 0
COc1ccc(/C=N/NC(=O)c2ccco2)cc1OC :: label 0

Prompt: Hello, I need to know if Cc1cccc2c1CC1(C2)Cc2c(C)cccc2C1=O (stereo unspecified) has measured growth inhibition not below 20%. Thanks!
Completion: label 0

Prompt: Hello, I need to know if "O=S1(=O)CCN(c2ccccc2CC(c2c[nH]c3ccccc23)c2c[nH]c3ccccc23)CC1" has measured growth inhibition not below 20%. Thanks!
Completion: label 1

Prompt: Hello, I need to know if "Nc1ccc2nc3ccccc3nc2c1" has measured growth inhibition not below 20%. Thanks!
Completion: label 0

Prompt: Hello, I need to know if N#CN1CCCC(O)c2sc3ccccc3c2CC1 (stereo unspecified) has measured growth inhibition not below 20%. Thanks!
Completion: label 0

Prompt: Hello, I need to know if "CC(C)N=Cc1cc(Br)cc(Br)c1O.CC(C)N=Cc1cc(Br)cc(Br)c1O.[Co]" has measured growth inhibition not below 20%. Thanks!
Completion: label 1

---

Test: NCI Yeast Anticancer Drug Screen. Data for the cln2 rad14 strain (AID 165);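 note: 0% = growth equal to vehicle treated cultures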
Conditions: S. cerevisiae cln2 rad14 strain, at 5.0 µM (retest, dose inferred, filed as 0.5), active compounds read high
About 79,000 compounds went through this panel and 15% of them were active in at least one assay; those are over-represented in the sample as a whole.
Endpoint Label: growth inhibition (%)
All answers are understood in %, so give the number only.

The cases that follow already have their growth inhibition on record.
NNc1cc(Cl)ccc1Cl :: 80
Cc1cc(C)c([O-])c(-[n+]2c(-c3ccccc3)cc(-c3ccccc3)cc2-c2ccccc2)c1 :: -8
COc1cccc(C=O)c1O :: 1
CN(C)CCOC1(CC2CCCCC2)CCC(C(C)(C)C)CC1 (stereo unspecified) :: 11
CC(CO)(CO)N=Cc1cc(I)cc(I)c1O :: 87

Prompt: Please look up its growth inhibition: "Cc1cc(Br)ccc1NC(=O)/C=C/C(=O)O"
Completion: 10

Prompt: Please look up its growth inhibition: "O=C(O)/C=C/c1ccc2c(c1)CC1(Cc3ccccc3C1)C2"
Completion: 64

Prompt: Please look up its growth inhibition: "Cc1c(N=Nc2c(S(=O)(=O)O)cc3cc(S(=O)(=O)O)c(N=Nc4c(C)n(C)n(-c5ccccc5)c4=O)c(O)c3c2O)c(=O)n(-c2ccccc2)n1C"
Completion: 7

---

Test: NCI Yeast Anticancer Drug Screen. Data for the bub3 strain (AID 167)
Conditions: S. cerevisiae bub3 mutant strain, at 50.0 µM (retest, dose inferred, filed as 5.0)
The panel holds about 79,000 compounds, 15% with a hit somewhere; the sample as a whole holds those more often. Active and inactive are the calls of the source. Cut-off read from the data, not from the text of the source: active = growth inhibition above about 70%; inactive = the rest.
Write down the outcome that applies. Available outcomes: T = active, F = inactive

Here's what some known entries look like.
CCCCCCCCCCCCCCCCCC1=NCCN1 :: T
CC(C)c1ccc2c(c1)CC[C@H]1[C@](C)(C(=O)O)CCC[C@]21C :: T
CN(C)c1nc(=NCc2ccco2)ss1 :: T
CC(=O)OC1CCC2(C)C3CCC4(C)C(CCC4(Br)C(=O)CBr)C3CC(Br)C2(Br)C1 (stereo not drawn) :: F
CC(C)(C)C(NO)C(O)N1CCCCC1 (stereo not drawn) :: F
Cc1cccc(/C=N/Nc2cc(C)nc3ccccc23)n1 :: F
COc1ccc(C2c3cc4c(cc3OC(O)C2C)OCO4)cc1 (stereo not drawn) :: F
CC1=C(C(=O)Nc2ccc([N+](=O)[O-])cc2)C(c2ccccc2F)C(C(=O)Nc2ccc([N+](=O)[O-])cc2)=C(C)N1 :: F
COc1ccc(C2C(C#N)(C#N)C2(C#N)C#N)cc1 :: T
Cc1c(N=Nc2c(S(=O)(=O)O)cc3cc(S(=O)(=O)O)c(N=Nc4c(C)n(C)n(-c5ccccc5)c4=O)c(O)c3c2O)c(=O)n(-c2ccccc2)n1C :: F

Please examine the following record next.
Prompt: Please state the recorded outcome for this molecule: "Cn1c2ccccc2c2cc3cnccc3cc21"
Completion: T

---

Test: NCI Yeast Anticancer Drug Screen. Data for the rad50 strain (AID 155);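 note: 0% = growth of vehicle-only cultures of the same strain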
Conditions: S. cerevisiae rad50 strain growth inhibition; at 5.0 µM (retest, dose inferred, filed as 0.5); active compounds read high
The panel holds about 79,000 compounds, 15% with a hit somewhere; the sample as a whole holds those more often.
Quick reference: growth inhibition of the listed items.
All answers are understood in %, so give the number only.

Prompt: Please look up its growth inhibition: COc1cccc2c1C(=O)c1c(O)c3c(c(O)c1C2=O)C[C@@](O)(/C(C)=N\NC(N)=O)C[C@@H]3OC1CC(N)C(O)C(C)O1 (some centres not stated)
Completion: 30

Prompt: Please look up its growth inhibition: "CCCCCOC(=S)SSSC(=S)OCCCCC"
Completion: -38

Prompt: Please look up its growth inhibition: "O=Cc1ccc(O)cc1O"
Completion: 8

Prompt: Please look up its growth inhibition: "Cc1ccc(/C=N/NC(N)=S)cc1C"
Completion: -6

Prompt: Please look up its growth inhibition: "CCOC(=O)/C(=C\n1c(=O)sc2ccccc21)C(=O)c1ccccc1"
Completion: 18

Prompt: Please look up its growth inhibition: "O=[N+]([O-])c1ccc(/C=N/NC2=CS(=O)(=O)C=C2)cc1"
Completion: 0

Prompt: Please look up its growth inhibition: C=CCOC(=O)N(C(=O)OCC=C)C(Cc1ccc(O)cc1)C(=O)NNc1ccccc1 (configuration not stated)
Completion: 17

Prompt: Please look up its growth inhibition: "Oc1c(Br)cc(Br)cc1C=Nc1ccc(Br)cc1"
Completion: 68

Prompt: Please look up its growth inhibition: "COc1ccc(/C=N/Nc2cc(C)nc3cc4c(cc23)OCO4)c2ccccc12"
Completion: 20

Prompt: Please look up its growth inhibition: CCS(=O)(=O)C(C(O)C(O)C(O)C(O)CO)S(=O)(=O)CC (configuration not stated)
Completion: -3

Prompt: Please look up its growth inhibition: "O=C(N/C(=C\c1nc2ccccc2s1)c1ccccc1O)c1ccccc1"
Completion: -10

Prompt: Please look up its growth inhibition: "C/C=C\C=N\NC(N)=S"
Completion: 4

---

Test: NCI Yeast Anticancer Drug Screen. Data for the rad50 strain (AID 155);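 note: 0% = growth of vehicle-only cultures of the same strain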
Conditions: S. cerevisiae rad50 strain growth inhibition; at 50.0 µM; active compounds read high
The panel holds about 79,000 compounds, 15% with a hit somewhere; the sample as a whole holds those more often.
Endpoint Label: growth inhibition (%)
All answers are understood in %, so give the number only.

COc1ccc(C2NCc3c(sc4c3CCCC4)-n3cccc32)cc1 (configuration not stated) :: 57.1
CC(CC=NCCN=CCC(C)CC(C)(C)C)CC(C)(C)C (configuration not stated) :: 97.9
COc1ccc(/C=C2\CCC(CN3CCOCC3)C2=O)cc1 (configuration not stated) :: 93.5
Cc1ccc(SCc2nc3ccccc3c(C)[n+]2[O-])cc1 :: 32.6
CCCCc1c2c(nc3c1CC/C(=C\c1ccccc1)C3=O)CCCC2 :: 65.8

Prompt: Please look up its growth inhibition: "CN(C)CCCNc1ccc(O)c2c1C(=O)c1ccccc1C2=O"
Completion: 89.9

Prompt: Please look up its growth inhibition: "COc1ccc(N=Nc2ccc(O)cc2)cc1"
Completion: 96.5

Prompt: Please look up its growth inhibition: "Nc1nc(=Nc2ccccc2)ss1"
Completion: 84.8

Prompt: Please look up its growth inhibition: "COc1ccc(SC2=C(N(C)C(C)=O)C(=O)c3ccccc3C2=O)cc1"
Completion: 99.5

Prompt: Please look up its growth inhibition: "C#CCNC(C)(C)C"
Completion: 98.5

---

Assay: NCI Yeast Anticancer Drug Screen. Data for the bub3 strain (AID 167)
Conditions: S. cerevisiae bub3 mutant strain, at 5.0 µM (retest, dose inferred, filed as 0.5)
About 79,000 compounds went through this panel and 15% of them were active in at least one assay; those are over-represented in the sample as a whole. Calls of active or inactive are those of the source. Cut-off read from the data, not from the text of the source: active = growth inhibition above about 70%; inactive = the rest.
Write down the outcome that applies. Available outcomes: active, inactive

Here's what some known entries look like.
CC(=O)OCC1OC(OC2C=C(O[Si](C)(C)C)C[C@H]3C(=O)C=CC(=O)[C@@H]23)C(OC(C)=O)C(OC(C)=O)C1OC(C)=O (some centres not stated) :: inactive
CN1C(Cl)=NS(=O)(=O)c2ccccc21 :: inactive
CN(C)CCC1(C2=CCCC2)CC/C(=C\c2ccc(Cl)cc2)C1=O (configuration not stated) :: inactive
O=C1c2c(F)c(F)c(F)c(F)c2SC2=NCCN12 :: inactive
CCOC(=O)/C(=C\N1C(=O)/C(=C\C(C)=C\c2ccccc2)SC1=S)C(=O)c1ccccc1 :: inactive

Prompt: Please state the recorded outcome for this molecule: COc1ccc(/C=C2\CCC(CN3CCOCC3)C2=O)cc1 (configuration not stated)
Completion: active

Prompt: Please state the recorded outcome for this molecule: CC(NC(=O)C(Cc1ccccc1)NC(=O)c1ccc[n+](Cc2ccccc2)c1)C(N)=O (configuration not stated)
Completion: inactive

Prompt: Please state the recorded outcome for this molecule: COC(=O)C(C#N)C(c1ccccc1)c1c[nH]c2ccccc12 (configuration not stated)
Completion: inactive

Prompt: Please state the recorded outcome for this molecule: "CCCCOC(=O)c1n[nH]c(C)c1N=NN(C)C"
Completion: active

Prompt: Please state the recorded outcome for this molecule: "Oc1ccc(C2CCCCC2)cc1"
Completion: inactive

Prompt: Please state the recorded outcome for this molecule: CC(C)/C=C1\CCC(CN2CCOCC2)C1=O (configuration not stated)
Completion: inactive
